Just for reference, ChEMBL document CHEMBL1149100 is where these values come from.

Kindly state MIC for each of the entries shown.
- System: Mycobacterium avium
- PROCEDURE_SUMMARY: Minimum inhibitory concentration required against Mycobacterium avium isolate from patient number MAC108
- Assay type: functional

>>> val("COc1ccc(OCCCCCCCCC(=O)O)cc1Cc1cnc(N)nc1N")
"> 32 µg/mL"

Kindly give each listed record's MIC.
1. COc1ccc(C#CCOc2cccc(C(=O)O)c2)cc1Cc1cnc(N)nc1N
2. CCCCCCOc1ccc(OC)c(Cc2cnc(N)nc2N)c1

> 32 µg/mL
32 µg/mL

----------
- TARGET: Dihydrofolate reductase (Mycobacterium avium, UniProt O30463)
- Sequence (O30463 whole entry): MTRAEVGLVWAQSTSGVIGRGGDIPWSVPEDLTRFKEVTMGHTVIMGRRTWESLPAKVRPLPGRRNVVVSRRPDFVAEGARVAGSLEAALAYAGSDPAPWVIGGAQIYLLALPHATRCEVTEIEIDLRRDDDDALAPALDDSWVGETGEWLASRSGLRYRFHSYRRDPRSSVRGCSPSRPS
Kindly state IC50 for each of the entries shown.
One number for each entry, in nM.

// worked examples, IC50 included
>>> val("COc1ccc(C#Cc2ccc(C(=O)O)cc2)cc1Cc1cnc(N)nc1N")
3.7
>>> val("COc1ccc(CCCOc2cccc(C(=O)O)c2)cc1Cc1cnc(N)nc1N")
25
>>> val("COc1ccc(CCc2ccc(C(=O)O)cc2)cc1Cc1cnc(N)nc1N")
25

Kindly give each listed record's IC50.
1. COc1ccc(C#Cc2ccccc2C(=O)O)cc1Cc1cnc(N)nc1N
2. COc1ccc(/C=C/COc2ccccc2C(=O)O)cc1Cc1cnc(N)nc1N
3. COc1ccc(CCCOc2ccccc2C(=O)O)cc1Cc1cnc(N)nc1N
4. Cc1ccc(Cl)cc1Cc1cnc2nc(N)nc(N)c2c1C
5. COc1ccc(C#Cc2cccc(C(=O)O)c2)cc1Cc1cnc(N)nc1N
6. COc1cc(Cc2cnc3nc(N)nc(N)c3c2C)cc(OC)c1

[100, 380, 310, 0.19, 1.5, 0.64]

----------
Kindly state pIC50 for each of the entries shown.
- TARGET: Dihydrofolate reductase (Pneumocystis carinii, UniProt P16184)
- Sequence (P16184 whole entry): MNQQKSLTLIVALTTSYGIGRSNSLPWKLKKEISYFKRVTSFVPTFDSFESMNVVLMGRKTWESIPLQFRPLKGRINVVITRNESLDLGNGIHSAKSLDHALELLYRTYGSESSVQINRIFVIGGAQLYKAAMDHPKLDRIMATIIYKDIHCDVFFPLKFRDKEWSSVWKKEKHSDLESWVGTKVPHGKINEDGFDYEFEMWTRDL
One number for each entry, as −log10 of the molar value.

// worked examples, pIC50 included
>>> val("COc1ccc(C#Cc2cccc(C(=O)O)c2)cc1Cc1cnc(N)nc1N")
7.64
>>> val("COc1ccc(C#Cc2ccccc2C(=O)O)cc1Cc1cnc(N)nc1N")
5.39
>>> val("COc1ccc(CCCOc2cccc(C(=O)O)c2)cc1Cc1cnc(N)nc1N")
5.96

Kindly give each listed record's pIC50.
1. COc1ccc(CCCOc2ccccc2C(=O)O)cc1Cc1cnc(N)nc1N
2. COc1ccc(CCc2ccc(C(=O)O)cc2)cc1Cc1cnc(N)nc1N
3. COc1ccc(C#Cc2ccc(C(=O)O)cc2)cc1Cc1cnc(N)nc1N
4. COc1ccc(/C=C/COc2ccccc2C(=O)O)cc1Cc1cnc(N)nc1N

5.11
5.15
5.89
5.07

----------
- System: Mycobacterium avium
- PROCEDURE_SUMMARY: Minimum inhibitory concentration required against Mycobacterium avium isolate from patient number MAC108
- Format: functional
PARAMETER: MIC

>>> val("COc1ccc(C#CCOc2ccccc2C(=O)O)cc1Cc1cnc(N)nc1N")
"> 32 µg/mL"
>>> val("COc1ccc(C#Cc2ccc(C(=O)O)cc2)cc1Cc1cnc(N)nc1N")
"> 64 µg/mL"

Kindly give each listed record's MIC.
1. COc1ccc(OCCCCCC(=O)O)cc1Cc1cnc(N)nc1N
2. COc1ccc(OCc2ccc(C(=O)O)cc2)cc1Cc1cnc(N)nc1N
3. COc1ccc(CCCCC(=O)O)cc1Cc1cnc(N)nc1N

1. 32 µg/mL
2. > 32 µg/mL
3. > 32 µg/mL

// query MIC value for entry COc1ccc(CCCCCCC(=O)O)cc1Cc1cnc(N)nc1N
> 32 µg/mL

----------
- System: Mycobacterium avium
- PROCEDURE_SUMMARY: Minimum inhibitory concentration required against Mycobacterium avium isolate from patient number MAC100
- Assay type: functional
PARAMETER: MIC (µg/mL)
Numbers only, in µg/mL.

>>> val("CCCCCCOc1ccc(OC)c(Cc2cnc(N)nc2N)c1")
32
>>> val("COc1ccc(OCCCCCC(=O)O)cc1Cc1cnc(N)nc1N")
16
>>> val("COc1ccc(OCCCCCCCC(=O)O)cc1Cc1cnc(N)nc1N")
8
>>> val("COc1ccc(OCCCCC(=O)O)cc1Cc1cnc(N)nc1N")
16
>>> val("COc1ccc(CCCCCC(=O)O)cc1Cc1cnc(N)nc1N")
32

Here is the next item to consider.
// query MIC value for entry COc1ccc(OCCCCCCCCC(=O)O)cc1Cc1cnc(N)nc1N
8

----------
- TARGET: Bifunctional dihydrofolate reductase-thymidylate synthase (Toxoplasma gondii, UniProt Q07422)
- Sequence (Q07422 whole entry): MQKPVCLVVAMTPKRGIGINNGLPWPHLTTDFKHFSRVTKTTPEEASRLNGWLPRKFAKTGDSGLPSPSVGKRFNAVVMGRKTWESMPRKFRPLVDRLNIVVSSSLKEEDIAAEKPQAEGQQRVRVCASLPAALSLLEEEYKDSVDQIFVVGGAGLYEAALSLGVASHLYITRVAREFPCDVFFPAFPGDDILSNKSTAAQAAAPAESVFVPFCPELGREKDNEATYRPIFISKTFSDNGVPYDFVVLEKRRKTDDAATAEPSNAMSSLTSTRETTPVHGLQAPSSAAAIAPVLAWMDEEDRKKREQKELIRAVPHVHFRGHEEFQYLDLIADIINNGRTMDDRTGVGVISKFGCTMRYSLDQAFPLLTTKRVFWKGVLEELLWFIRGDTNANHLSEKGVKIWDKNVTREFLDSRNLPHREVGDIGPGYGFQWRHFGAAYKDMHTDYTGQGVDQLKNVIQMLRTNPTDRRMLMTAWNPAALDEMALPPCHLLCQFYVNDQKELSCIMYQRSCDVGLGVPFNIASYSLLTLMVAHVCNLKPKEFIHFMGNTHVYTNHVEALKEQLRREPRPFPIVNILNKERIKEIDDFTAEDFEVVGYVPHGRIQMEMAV
PARAMETER: pIC50
Numbers only, as −log10 of the molar value.

Kindly give each listed record's pIC50.
1. COc1ccc(C#Cc2cccc(C(=O)O)c2)cc1Cc1cnc(N)nc1N
2. COc1ccc(C#Cc2ccc(C(=O)O)cc2)cc1Cc1cnc(N)nc1N
3. COc1ccc(/C=C/COc2ccccc2C(=O)O)cc1Cc1cnc(N)nc1N
4. COc1ccc(CCCOc2ccccc2C(=O)O)cc1Cc1cnc(N)nc1N
5. COc1ccc(CCCOc2cccc(C(=O)O)c2)cc1Cc1cnc(N)nc1N
6. COc1ccc(C#Cc2ccccc2C(=O)O)cc1Cc1cnc(N)nc1N

1. 8.26
2. 6.47
3. 5.60
4. 6.15
5. 6.68
6. 5.72

// query pIC50 value for entry COc1ccc(CCc2ccc(C(=O)O)cc2)cc1Cc1cnc(N)nc1N
5.82

----------
Kindly state log10 IC50 for each of the entries shown.
- TARGET: Dihydrofolate reductase (Rattus norvegicus)
- Sequence (Q920D2 whole entry): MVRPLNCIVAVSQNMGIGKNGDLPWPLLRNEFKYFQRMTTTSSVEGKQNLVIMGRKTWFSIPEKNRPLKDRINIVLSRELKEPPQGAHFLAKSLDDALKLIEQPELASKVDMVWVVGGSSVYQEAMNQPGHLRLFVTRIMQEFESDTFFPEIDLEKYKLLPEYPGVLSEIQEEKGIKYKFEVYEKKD
# log10 transformed; quantity=IC50; unit=µM

// worked examples, log10 IC50 included
>>> val("COc1ccc(/C=C/COc2ccccc2C(=O)O)cc1Cc1cnc(N)nc1N")
0.81
>>> val("COc1ccc(CCCOc2cccc(C(=O)O)c2)cc1Cc1cnc(N)nc1N")
0.60
>>> val("COc1ccc(CCCOc2ccccc2C(=O)O)cc1Cc1cnc(N)nc1N")
1.40
>>> val("COc1ccc(C#Cc2ccccc2C(=O)O)cc1Cc1cnc(N)nc1N")
1.40

Kindly give each listed record's log10 IC50.
1. COc1ccc(C#Cc2cccc(C(=O)O)c2)cc1Cc1cnc(N)nc1N
2. COc1ccc(CCc2ccc(C(=O)O)cc2)cc1Cc1cnc(N)nc1N
3. COc1ccc(C#Cc2ccc(C(=O)O)cc2)cc1Cc1cnc(N)nc1N

1: -0.19; 2: 1.11; 3: 0.91

----------
Kindly state MIC for each of the entries shown.
- Tested on: Mycobacterium avium
- PROCEDURE_SUMMARY: Minimum inhibitory concentration required against Mycobacterium avium isolate from patient number MAC108
- Assay type: functional
Give bare numbers, in µg/mL.

Kindly give each listed record's MIC.
1. COc1ccc(C#CCCCC(=O)O)cc1Cc1cnc(N)nc1N
2. CCCCCCCOc1ccc(OC)c(Cc2cnc(N)nc2N)c1
3. COc1ccc(OCCCC(=O)O)cc1Cc1cnc(N)nc1N
4. COc1ccc(OCCCCCCCC(=O)O)cc1Cc1cnc(N)nc1N

32
8
16
32

// query MIC value for entry COc1ccc(C#CCCC(=O)O)cc1Cc1cnc(N)nc1N
16
